// reported Kd per item
- assaySystem: DCAF1 WD40 domain (residues 1077-1390) (Homo sapiens, UniProt Q9Y4B6)
- Construct: DCAF1 WD40 domain (residues 1077-1390)
- Sequence (Q9Y4B6 1077-1390): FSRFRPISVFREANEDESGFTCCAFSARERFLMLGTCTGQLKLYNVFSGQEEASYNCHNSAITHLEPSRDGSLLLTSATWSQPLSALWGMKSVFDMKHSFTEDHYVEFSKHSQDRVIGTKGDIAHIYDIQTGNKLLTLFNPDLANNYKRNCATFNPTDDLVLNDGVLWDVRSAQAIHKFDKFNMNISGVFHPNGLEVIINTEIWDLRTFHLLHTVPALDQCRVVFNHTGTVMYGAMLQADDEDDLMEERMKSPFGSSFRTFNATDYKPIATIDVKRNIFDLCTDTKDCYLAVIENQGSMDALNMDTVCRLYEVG
- assaySummary: DCAF1 binding assay by SPR (Biacore 8K+), DCAF1-3 KD
- setupConditions: 25 °C, read-out: DCAF1-3 SPR (KD)

// below: answered compounds
NCCOCCOCCOCCOCCOCC(=O)c1[nH]cc(C(=O)N[C@@H](CC(N)=O)c2cccc(Cl)c2)c1-c1ccccc1F
< 10 µM
O=C1C[C@H]([C@@H](NC(=O)c2cn[nH]c2-c2ccccc2F)c2cccc(Cl)c2)CN1
100 to 200 µM
NC(=O)C[C@H](NC(=O)c1c[nH]c(-c2ccccc2)c1-c1ccccc1F)c1cccc(Cl)c1
< 10 µM

Ask: I am curious: what Kd value has been reported for Oc1cc(N[C@@H]2CCCN(c3cccc(F)c3)C2)cc(N2CCOCC2)c1 ?
Reply: 10 to 100 µM

Ask: And the next one, Nc1ccc(N2CCC[C@@H]3[C@H]2CCN3c2cc(N3CC4CC(C4)C3)ccn2)cc1F ?
Reply: < 10 µM

Ask: And the next one, c1ccc2nc(N3CCC[C@@H](Nc4nccc(N5CCOCC5)n4)C3)ccc2c1 ?
Reply: > 200 µM
